For each of the molecules below, state its EC50.
system: primary hepatocytes of propionic acidemia patients; assay: Reduction of 13C-propionyl-CoA and accumulation of compound-CoA ester after 13C-isoleucine challenge (Example 1); assay type: cell-based; conditions: Homo sapiens, Hepatocyte; 13C-labeled isoleucine; compound 0 μM to 1,000 μM; read-out: concentration of 12C-Compound-CoA ester EC50
Answers are plain numbers, in µM.

Working through the 5 molecules below one at a time, give EC50 for each.
1. CC1(CC(=O)O)CC1 [Compound 7, 2-(1-methylcyclopropyl) acetic acid]
2. CCCC(CC)C(=O)O (stereo not shown) [Compound 2, 2-ethylpentanoic acid]
3. CC(C)(C)CC(=O)O [Compound 6, 3,3-dimethylbutanoic acid]
4. CCCC(CCC)C(=O)O [Compound 1, 2-propylpentanoic acid (valproic acid)]
5. CCC(CC)C(=O)O [Compound 4, 2-ethylbutanoic acid]

1. 10.2
2. 1.24
3. 0.48
4. 12.5
5. 10.3

Working through the 2 molecules below one at a time, give EC50 for each.
1. CCCC(C)C(=O)O (stereo not shown) [Compound 3, 2-methylpentanoic acid]
2. CCC(C)(C)C(=O)O [Compound 5, 2,2-dimethybutanoic acid]

[27.4, 0.95]

* * *

tested on: MMA primary hepatocytes; assay: HemoShear Technology, MMA primary hepatocytes (Examples 10, 11); assay type: cell-based, human; settings: Homo sapiens, Hepatocyte; MMA pHeps; HemoShear; read-out: Compound 5-CoA (formation) EC50
RECORDED_ENDPOINT: pEC50
One number for each entry, as −log10 of the molar value.

Enter reported pEC50 observed with MMA primary hepatocytes for CCC(C)(C)C(=O)O [Compound 5, 2,2-dimethybutanoic acid]
5.46

* * *

tested on: PA primary hepatocytes; test: HemoShear Technology, PA primary hepatocytes (Examples 10, 11); format: cell-based, human; details: Homo sapiens, Hepatocyte; PA pHeps; HemoShear; average ± SD; read-out: 2-Methylcitric acid (2MC) EC50
RECORDED_ENDPOINT: EC50 (nM)
Numbers only, in nM.

Can you share its EC50? I mean this compound: CCC(C)(C)C(=O)O
1100

* * *

tested on: MMA primary hepatocytes; test: Static cell culture, low/high propiogenic media, MMA primary hepatocytes; format: cell-based, human; conditions: Homo sapiens, Hepatocyte, MMA pHeps; high propiogenic; static culture; read-out: 12C-Acetyl-CoA EC50
RECORDED_ENDPOINT: EC50 (nM)
Answers are plain numbers, in nM.

Can you share its EC50? I mean this compound: CCC(C)(C)C(=O)O
1400

* * *

tested on: MMA primary hepatocytes; experiment: Static cell culture, low/high propiogenic media, MMA primary hepatocytes; format: cell-based, human; conditions: Homo sapiens, Hepatocyte, MMA pHeps; high propiogenic media; static; read-out: 13C-Methymalonic acid EC50
RECORDED_ENDPOINT: EC50 (nM)
Numbers only, in nM.

Can you share its EC50? I mean this compound: CCC(C)(C)C(=O)O [Compound 5, 2,2-dimethybutanoic acid]
1100

* * *

system: PA primary hepatocytes; test: Static cell culture, low/high propiogenic media, PA primary hepatocytes; assay type: cell-based, human; settings: Homo sapiens, Hepatocyte, PA pHeps; high propiogenic media; static; read-out: 13C-Propionyl-CoA (13C-P-CoA) EC50
RECORDED_ENDPOINT: pEC50
Answers are plain numbers, as −log10 of the molar value.

Can you share its pEC50? I mean this molecule: CCC(C)(C)C(=O)O [Compound 5, 2,2-dimethybutanoic acid]
5.77
